# assayed-target: human 5-hydroxytryptamine-2C (h5-HT2C) receptor (Homo sapiens, UniProt P28335)
# Construct: expressed in transfected cells; host or cells: CHO (Chinese Hamster Ovary) cells; membrane preparation
# method-summary: [125I]DOI binding to membranes of CHO cells expressing h5-HT2C receptor
# experimental-conditions: read-out: 5-HT2C Binding Ki avg
pKi: −log10 of the molar value. Where a name gives a salt, the structure may show the parent alone.
endpoint-name: pKi

// solved cases for pKi follow
molecule | pKi
CNC[C@H]1CCc2cc(F)cc(-c3ccc(Cl)cc3Cl)c2O1 [Compound 41, hydrochloride] | 7.30 to 8.00
NC[C@H]1C=Cc2cc(F)cc(-c3cc(Cl)ccc3Cl)c2O1 [Compound 63, hydrochloride] | ≥ 8.00
NC[C@@H]1CCc2cccc(-c3ccc(Cl)cc3Cl)c2O1 [Compound 29, hydrochloride] | 7.30 to 8.00
CNC[C@@H]1CCc2cccc(-c3ccccc3C)c2O1 [Compound 25, hydrochloride] | 7.30 to 8.00

Exercise: Give a short answer stating reported pKi for CNC[C@@H]1CCc2cccc(-c3ccccc3OC)c2O1 [Compound 23, hydrochloride] .
Key: < 7.30

###

# assayed-target: UniProtKB P28335
# method-summary: calcium mobilization (FLIPR) in CHO cells stably expressing the human 5-HT2C receptor
# Type: cell-based
# experimental-conditions: CHO, read-out: 5-HT2C Function EMax (%)
Counter-ions that a name gives are not always drawn.
endpoint-name: Emax (%)
Reply numerically in %, unit not repeated.

Solved cases (5 shown):
molecule | endpoint-name | unit-abbrev | experimental-result
CNC[C@H]1CCc2cc(F)cc(-c3ccccc3)c2O1 [Compound 42, hydrochloride] | Emax | % | 90
COc1ccccc1-c1cc(F)cc2c1O[C@@H](CN)C=C2 [Compound 65, hydrochloride] | Emax | % | 80
CNC[C@@H]1CCc2cccc(-c3ccccc3Cl)c2O1 [Compound 19, hydrochloride] | Emax | % | 80
NC[C@H]1C=Cc2cccc(-c3c(Cl)cccc3Cl)c2O1 [Compound 60, hydrochloride] | Emax | % | 100
NC[C@@H]1CCc2cc(F)cc(-c3ccc(Cl)cc3Cl)c2O1 [Compound 56, hydrochloride] | Emax | % | 80

Then there is this molecule:
Exercise: Supply recorded Emax for NC[C@H]1CCc2cc(F)cc(-c3ccc(Cl)cc3Cl)c2O1 [Compound 47, hydrochloride] here.
Key: 90

###

# assayed-target: human 5-HT2C receptor (Homo sapiens)
# method-summary: calcium mobilization (FLIPR) in CHO cells stably expressing the human 5-HT2C receptor
# experimental-conditions: calcium mobilization; read-out: 5-HT2C Function EC50
pEC50: −log10 of the molar value. Where a name gives a salt, the structure may show the parent alone.
Measured pEC50, listed per entry.

compound | pEC50
CNC[C@H]1CCc2cccc(-c3c(Cl)cccc3Cl)c2O1 [Compound 35, hydrochloride] | > 7.30
CNC[C@H]1CCc2cc(F)cc(-c3cccnc3)c2O1 [Compound 44, hydrochloride] | < 6.70
NC[C@@H]1CCc2cc(F)cc(-c3ccccc3Cl)c2O1 [Compound 51, hydrochloride] | > 7.30

Exercise: State its pEC50 for this compound: NC[C@H]1C=Cc2cc(F)cc(-c3c(Cl)cccc3Cl)c2O1 [Compound 66, hydrochloride]
Key: > 7.30

###

# assayed-target: human 5-HT2C receptor (Homo sapiens)
# Sequence (P28335 33-458): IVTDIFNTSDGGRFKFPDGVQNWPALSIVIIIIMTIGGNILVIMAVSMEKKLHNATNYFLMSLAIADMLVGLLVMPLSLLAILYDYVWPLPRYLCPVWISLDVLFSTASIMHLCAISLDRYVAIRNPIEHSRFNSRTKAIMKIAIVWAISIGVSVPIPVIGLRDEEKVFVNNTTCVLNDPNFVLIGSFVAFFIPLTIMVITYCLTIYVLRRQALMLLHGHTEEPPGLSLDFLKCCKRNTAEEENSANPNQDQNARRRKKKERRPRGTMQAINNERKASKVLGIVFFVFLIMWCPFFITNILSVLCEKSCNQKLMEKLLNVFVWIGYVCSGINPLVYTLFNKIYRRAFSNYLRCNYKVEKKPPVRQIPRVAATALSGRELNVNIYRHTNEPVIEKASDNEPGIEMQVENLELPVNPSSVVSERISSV
# method-summary: calcium mobilization (FLIPR) in CHO cells stably expressing the human 5-HT2C receptor
# experimental-conditions: calcium mobilization; read-out: 5-HT2C Function EC50
pEC50: −log10 of the molar value. Counter-ions that a name gives are not always drawn.
Measured pEC50 by item

compound | pEC50
NC[C@H]1CCc2cccc(-c3ccccc3)c2O1 [Compound 14, hydrochloride] | < 6.70

Exercise: Quote pEC50 reported for Cc1ccccc1-c1cccc2c1O[C@@H](CN)CC2 [Compound 17, hydrochloride] please.
Key: > 7.30

Exercise: Indicate its recorded pEC50; the compound in question is NC[C@H]1C=Cc2cc(F)cc(-c3cc(Cl)ccc3Cl)c2O1 [Compound 63, hydrochloride]
Key: > 7.30

###

Measured pEC50, listed per entry for reference.
# assayed-target: human 5-HT2C receptor (Homo sapiens, UniProt P28335)
# Sequence (P28335 33-458): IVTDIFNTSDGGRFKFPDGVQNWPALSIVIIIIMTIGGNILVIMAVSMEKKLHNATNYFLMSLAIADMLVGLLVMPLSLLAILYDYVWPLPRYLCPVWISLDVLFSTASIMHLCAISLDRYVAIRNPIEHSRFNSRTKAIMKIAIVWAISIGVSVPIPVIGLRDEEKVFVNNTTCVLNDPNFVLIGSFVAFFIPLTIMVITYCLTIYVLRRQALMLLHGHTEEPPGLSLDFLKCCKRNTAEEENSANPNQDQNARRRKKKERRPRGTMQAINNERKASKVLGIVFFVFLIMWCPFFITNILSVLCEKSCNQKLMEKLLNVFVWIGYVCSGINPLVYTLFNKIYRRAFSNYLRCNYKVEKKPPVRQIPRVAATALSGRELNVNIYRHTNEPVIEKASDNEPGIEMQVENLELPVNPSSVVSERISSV
# method-summary: calcium mobilization (FLIPR) in CHO cells stably expressing the human 5-HT2C receptor
# experimental-conditions: calcium mobilization; read-out: 5-HT2C Function EC50
pEC50: −log10 of the molar value. Where a name gives a salt, the structure may show the parent alone.

These solved cases illustrate the format of a correct answer.
compound | assayed-target | pEC50
NC[C@@H]1CCc2cccc(-c3ccc(Cl)cc3Cl)c2O1 [Compound 29, hydrochloride] | human 5-HT2C receptor (Homo sapiens, UniProt P28335) | < 6.70
NC[C@H]1CCCc2cc(F)cc(-c3c(Cl)cccc3Cl)c2O1 [Compound 68, hydrochloride] | human 5-HT2C receptor (Homo sapiens, UniProt P28335) | 6.70 to 7.30

Exercise: Query pEC50 for CNC[C@H]1CCc2cc(F)cc(-c3ccc(Cl)cc3Cl)c2O1 [Compound 41, hydrochloride]
Key: 6.70 to 7.30

Exercise: Supply measured pEC50 of CNC[C@H]1C=Cc2cccc(-c3c(Cl)cccc3Cl)c2O1 [Compound 59, hydrochloride] in your reply.
Key: > 7.30

Exercise: Provide measured pEC50 value, entry: NC[C@H]1CCc2cc(F)cc(-c3cc(Cl)ccc3Cl)c2O1 [Compound 46, hydrochloride]
Key: < 6.70

Exercise: Look up and state reported pEC50 for NC[C@@H]1CCc2cccc(-c3cc(Cl)ccc3Cl)c2O1 [Compound 28, hydrochloride]
Key: 6.70 to 7.30

###

# assayed-target: human 5-hydroxytryptamine-2C (h5-HT2C) receptor (Homo sapiens, UniProt P28335)
# Construct: expressed in transfected cells; host or cells: CHO (Chinese Hamster Ovary) cells; membrane preparation
# Sequence (P28335 33-458): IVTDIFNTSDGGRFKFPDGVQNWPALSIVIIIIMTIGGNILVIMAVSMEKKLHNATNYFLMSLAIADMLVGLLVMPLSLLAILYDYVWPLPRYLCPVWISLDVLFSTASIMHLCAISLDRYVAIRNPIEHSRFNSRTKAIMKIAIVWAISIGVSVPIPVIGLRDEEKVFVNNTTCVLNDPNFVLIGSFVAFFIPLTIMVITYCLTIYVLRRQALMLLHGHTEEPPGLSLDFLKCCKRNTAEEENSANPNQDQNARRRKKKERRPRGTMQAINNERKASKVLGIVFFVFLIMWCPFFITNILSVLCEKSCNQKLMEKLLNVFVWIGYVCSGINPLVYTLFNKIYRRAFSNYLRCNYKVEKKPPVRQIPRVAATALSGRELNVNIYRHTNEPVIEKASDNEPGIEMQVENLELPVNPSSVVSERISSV
# method-summary: [125I]DOI binding to membranes of CHO cells expressing h5-HT2C receptor
# experimental-conditions: read-out: 5-HT2C Binding Ki avg
Where a name gives a salt, the structure may show the parent alone.
Entries annotated with measured Ki

In the examples that follow, each entry is paired with its recorded Ki.
molecule | experimental-result
NC[C@H]1C=Cc2cc(F)cc(-c3c(Cl)cccc3Cl)c2O1 [Compound 66, hydrochloride] | ≤ 10 nM
CNC[C@H]1CCc2cccc(-c3cccnc3)c2O1 [Compound 9, hydrochloride] | ≤ 10 nM
NC[C@H]1CCc2cc(F)cc(-c3ccccc3Cl)c2O1 [Compound 45, hydrochloride] | ≤ 10 nM
CNC[C@@H]1CCc2cccc(-c3cccnc3)c2O1 [Compound 26, hydrochloride] | > 50 nM
NCC1C=Cc2cc(F)cc(-c3ccccc3Cl)c2O1 (stereo not shown) [Compound 62, hydrochloride] | 10 to 50 nM
NC[C@H]1CCCc2cccc(-c3c(Cl)cccc3Cl)c2O1 [Compound 67, hydrochloride] | 10 to 50 nM
NC[C@H]1CCc2cccc(-c3ccccc3)c2O1 [Compound 14, hydrochloride] | 10 to 50 nM
CNC[C@H]1C=Cc2cccc(-c3c(Cl)cccc3Cl)c2O1 [Compound 59, hydrochloride] | ≤ 10 nM

Exercise: For Cc1ccccc1-c1cc(F)cc2c1O[C@@H](CN)CC2 [Compound 49, hydrochloride] , write its Ki.
Key: ≤ 10 nM

Exercise: Please report the measured Ki for NCC1CCc2cc(F)cc(-c3ccccc3Cl)c2O1 (stereo not shown) [Compound 37, hydrochloride]
Key: ≤ 10 nM

Exercise: Give me measured Ki, please, for this molecule: NC[C@H]1CCc2cc(F)cc(-c3cc(Cl)ccc3Cl)c2O1 [Compound 46, hydrochloride]
Key: 10 to 50 nM

Exercise: Dear colleague, please send me the reported Ki for CNC[C@H]1CCc2cccc(-c3ccccc3)c2O1 [Compound 5, hydrochloride] when you can.
Key: ≤ 10 nM

Exercise: Identify Ki associated with the molecule NC[C@H]1CCc2cc(F)cc(-c3ccc(Cl)cc3Cl)c2O1 [Compound 47, hydrochloride]
Key: > 50 nM

Cited source: patent US7365095B2
